Origin of the recorded values: patent US20200087347

Target: T1, integrin αvβ8 (human, UniProt P06756)
T1 chain 1: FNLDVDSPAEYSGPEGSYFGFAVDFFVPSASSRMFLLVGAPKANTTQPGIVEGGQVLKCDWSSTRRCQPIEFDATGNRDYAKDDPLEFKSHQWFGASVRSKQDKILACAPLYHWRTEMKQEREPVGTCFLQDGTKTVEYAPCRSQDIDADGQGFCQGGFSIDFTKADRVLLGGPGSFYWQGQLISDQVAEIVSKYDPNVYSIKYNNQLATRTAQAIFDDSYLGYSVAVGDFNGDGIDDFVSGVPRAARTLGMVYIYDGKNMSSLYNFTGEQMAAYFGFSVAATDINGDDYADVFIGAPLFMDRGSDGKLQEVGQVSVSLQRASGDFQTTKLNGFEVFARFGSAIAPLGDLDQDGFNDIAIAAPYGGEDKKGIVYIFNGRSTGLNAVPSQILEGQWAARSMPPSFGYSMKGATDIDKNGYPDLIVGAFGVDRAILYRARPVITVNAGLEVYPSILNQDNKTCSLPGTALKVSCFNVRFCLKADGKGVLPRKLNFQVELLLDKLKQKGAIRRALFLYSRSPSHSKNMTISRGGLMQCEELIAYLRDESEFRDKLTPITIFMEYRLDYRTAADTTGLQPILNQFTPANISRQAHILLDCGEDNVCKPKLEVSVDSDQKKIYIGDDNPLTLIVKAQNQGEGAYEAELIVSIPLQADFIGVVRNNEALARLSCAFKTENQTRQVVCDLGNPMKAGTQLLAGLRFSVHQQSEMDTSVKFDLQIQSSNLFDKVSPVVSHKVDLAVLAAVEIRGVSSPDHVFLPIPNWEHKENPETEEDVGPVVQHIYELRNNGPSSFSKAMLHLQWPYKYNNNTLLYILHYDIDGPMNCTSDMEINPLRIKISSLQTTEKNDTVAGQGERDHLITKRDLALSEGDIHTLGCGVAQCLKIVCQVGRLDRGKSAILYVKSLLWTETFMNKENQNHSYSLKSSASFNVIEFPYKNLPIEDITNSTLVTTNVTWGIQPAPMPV
T1 chain 2: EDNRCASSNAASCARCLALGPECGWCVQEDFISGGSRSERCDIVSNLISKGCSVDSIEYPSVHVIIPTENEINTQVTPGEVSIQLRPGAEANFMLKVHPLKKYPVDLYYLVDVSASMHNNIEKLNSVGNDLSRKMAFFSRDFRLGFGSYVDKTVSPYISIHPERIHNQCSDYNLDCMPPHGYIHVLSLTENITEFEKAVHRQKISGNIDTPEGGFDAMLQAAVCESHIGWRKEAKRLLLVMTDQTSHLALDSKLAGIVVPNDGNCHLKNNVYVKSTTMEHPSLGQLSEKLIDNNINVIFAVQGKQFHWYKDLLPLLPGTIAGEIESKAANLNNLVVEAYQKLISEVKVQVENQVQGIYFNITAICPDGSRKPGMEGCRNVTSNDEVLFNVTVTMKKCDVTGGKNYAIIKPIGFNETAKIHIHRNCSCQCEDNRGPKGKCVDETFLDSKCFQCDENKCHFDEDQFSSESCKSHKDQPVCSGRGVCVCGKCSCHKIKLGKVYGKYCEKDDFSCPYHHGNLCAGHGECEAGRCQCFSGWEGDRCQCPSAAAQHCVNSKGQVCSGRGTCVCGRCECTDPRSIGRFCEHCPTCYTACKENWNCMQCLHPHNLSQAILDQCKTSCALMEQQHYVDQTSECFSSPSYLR
Assay: competition
Where no end group is shown, it is not given here. Side-chain parts run from the residue outwards. [ ]: non-standard residue; d: D form. The star is where a group is joined. BODIPY(FL) = CC1=CC(C)=[N+]2C1=Cc1ccc(CCC(=O)*)n1[B-]2(F)F; NMeK = CN[C@@H](CCCCN)C(=O)O; Ahx = NCCCCCC(=O)O; BDPFL = dye

- BINDER: "cyclo(RGDL[dP][NMeK]([Ahx-BDPFL])GL) [Compound 9b (9-Ahx-BDPFL)]"
  VALUE UNITS: "nM"
  IC50: 0.87
- BINDER: "RGDL[dP][NMeK]([Gly-Pro-Pro-Pro-Gly-BODIPY(FL)])GL (not fully specified (bridges); also: cyclic, closure not given here) [Compound 9e (9-G(P)3G-BDPFL)]"
  VALUE UNITS: "nM"
  IC50: 2.07
- BINDER: "cyclo(RGDL[dP][NMeK]([Gly-Pro-Pro-Pro-Pro-Pro-Pro-Gly-BDPFL])GL) [Compound 9f (9-G(P)6G-BDPFL)]"
  VALUE UNITS: "nM"
  IC50: 7.98
